The following molecules are shown together with reported CC50 values.
Assay: NOVARTIS: Cytotoxicity against human hepatocellular carcinoma cell line (Huh7)
Format: toxicity, cell-based, Huh-7
Details: Huh7 cells (hepatocellular carcinoma cell line)

Illustrative cases are given below, each with its answer.
[[record]]
molecule = "CCCCCCN(C(=O)Nc1cccc(C#N)c1)C(CC)c1nc2ccccc2c(=O)n1CCC(=O)OC (stereo not drawn)"
test_value = "> 10 µM"

[[record]]
molecule = "CC(=O)N(C1=C(N2CCOCC2)C(=O)c2ccccc2C1=O)c1ccc(F)cc1"
test_value = "0.173 µM"

[[record]]
molecule = "FC(F)(F)c1cccc(C=NNc2nc3ccccc3[nH]2)c1"
test_value = "63.2 µM"

[[record]]
molecule = "CCC(C)CNC(=O)c1ccc(OC2CCN(CC3CCCCC3)CC2)c(Cl)c1 (stereo not drawn)"
test_value = "> 13.2 µM"

[[record]]
molecule = "Cc1cccc(-c2nc3cc(NC(=S)NC(=O)c4ccc(Cl)cc4)ccc3o2)c1"
test_value = "> 10 µM"


Let us examine a further case.
Given item `Cc1cc(C)[n+]2nc(N)c3ccccc3c2n1.[O-][Cl+3]([O-])([O-])[O-]` , the value recorded as its CC50 is > 10 µM
